Ref: patent US20250206761A1

- target.of.assay: KRAS G12C-BRAF complex (Homo sapiens (Human), UniProt P01116+P62937, G12C)
- Sequence (P01116-2 other isoform, or with tags, fused parts or gaps G12C): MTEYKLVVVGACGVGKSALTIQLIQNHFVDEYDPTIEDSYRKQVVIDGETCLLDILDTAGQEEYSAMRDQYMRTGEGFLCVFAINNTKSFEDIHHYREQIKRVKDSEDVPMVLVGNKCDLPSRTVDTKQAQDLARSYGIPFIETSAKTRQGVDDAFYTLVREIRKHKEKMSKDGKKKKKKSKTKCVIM
- Sequence (P62937 whole entry): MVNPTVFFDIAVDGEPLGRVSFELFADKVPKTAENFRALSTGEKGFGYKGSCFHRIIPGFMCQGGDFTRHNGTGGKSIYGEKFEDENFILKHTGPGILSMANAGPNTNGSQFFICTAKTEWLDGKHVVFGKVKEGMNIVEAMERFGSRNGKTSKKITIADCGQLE
- method.description: KRAS-BRAF with CYPA (500 nM) interaction assay (TR-FRET), G12C
- Assay type: biochemical
Readings of IC50 for the listed compounds
reported.property: IC50 (nM)

INSERT INTO assay_data (compound, reported_property, unit_of_measure, test_value) VALUES
  ('CO[C@@H](C)c1ncc(N2CCN(C)CC2)cc1-c1c2c3c(F)c(ccc3n1CC(F)(F)F)-c1cc(O)cc(c1)C[C@H](NC(=O)[C@H](C(C)C)N(C)C(=O)[C@H]1CCN(C(=O)[C@H](F)Cl)C1)C(=O)N1CCC[C@H](N1)C(=O)OCC(C)(C)C2 (atropisomer, axis not shown; (M))', 'IC50', 'nM', 2),
  ('CO[C@@H](C)c1ncc(N2CCN(C)CC2)cc1-c1c2c3cc(c(F)cc3n1CC(F)(F)F)-c1csc(n1)C[C@H](NC(=O)[C@H](C(C)C)N(C)C(=O)[C@H]1CCN(C(=O)[C@H](F)Cl)C1)C(=O)N1CCC[C@H](N1)C(=O)OCC(C)(C)C2 (atropisomer, axis not shown; (M))', 'IC50', 'nM', 89),
  ('CCn1c(-c2cc(N3CCN(C)CC3)cnc2[C@H](C)OC)c2c3cc(c(F)cc31)-c1csc(n1)C[C@H](NC(=O)[C@H](C(C)C)N(C)C(=O)[C@H]1CCN(C(=O)[C@H](F)Cl)C1)C(=O)N1CCC[C@H](N1)C(=O)OCC(C)(C)C2 (atropisomer, axis not shown; (M))', 'IC50', 'nM', 56);
